B1: FAM98B (parent)
chain: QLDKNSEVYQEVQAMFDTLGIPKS

Variants of: B1
Assay: protein stability index of a GFP-peptide fusion (GPS, HEK-293T) (PSI 1-6); higher = more stable;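 also: lentivirally expressed fusions sorted by FACS into six bins by GFP to DsRed ratio, PSI derived from sequencing read proportions per bin multiplied by bin number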
Conditions: c terminus: a fixed tail appended
protein stability index reference
API doc: respond with a numeric literal and nothing else, no unit.

Illustrative cases are given below, each with its answer.
QUERY: Hello, please tell me recorded protein stability index for this one: `P22C`
RESULT: 3.11

QUERY: Please give the documented protein stability index of `I21M`
RESULT: 3.27

QUERY: Give protein stability index for `K23Q`
RESULT: 3.41

QUERY: State its protein stability index: `V8E`
RESULT: 3.79

Now consider the entry below.
QUERY: Consider the variant `D3V` . State its measured protein stability index.
RESULT: 2.67
